- ASSAY_NOTES: Antiproliferative activity against HEK293T cells at 5 uM incubated for 48 hrs by MTT assay relative to control
- Format: toxicity, cell-based, HEK-293T
- MEASUREMENT_SETUP: human
Classification field: Condition met = inhibition at 48 h, 5 µM at or over 40%; Condition not met = inhibition at 48 h, 5 µM under 40%.

{"columns": ["MOLECULAR_STRING", "GROUP"],
 "data": [
  ["COc1cc(N2CCNCC2)ccc1Nc1nc(C(=O)c2ccc(F)cc2)nc2ccccc12", "Condition not met"],
  ["COc1ccc(N(C)c2nc(C(F)(F)c3cccc(OC)c3)nc3ccccc23)cc1", "Condition met"],
  ["CC(C)(CN1C(=O)C(Cl)=C(Cl)C1=O)CN1C(=O)C(Cl)=C(Cl)C1=O", "Condition met"],
  ["O=C(c1ccc(F)cc1)c1nc(Nc2ccc(N3CCNCC3)c(F)c2)c2ccccc2n1", "Condition not met"],
  ["COC(=O)c1ccc(N(C)c2nc(C(=O)c3ccccc3)nc3ccc(F)cc23)cc1", "Condition not met"],
  ["COc1cc(N2CCNCC2)ccc1N(C)c1nc(C(=O)c2ccc(F)cc2)nc2ccccc12", "Condition not met"],
  ["COC(=O)c1ccc(N(C)c2nc(C(=O)c3ccc(F)cc3)nc3ccccc23)cc1OC", "Condition not met"],
  ["COc1ccc(Nc2nc(C(=O)c3ccccc3)nc3ccc(F)cc23)cc1", "Condition not met"],
  ["COC(=O)c1ccc(Nc2nc(C(=O)c3ccc(F)cc3)nc3ccccc23)cc1OC", "Condition not met"],
  ["O=C(c1ccccc1)c1nc(Nc2ccc(OC(F)(F)F)cc2)c2cc(F)ccc2n1", "Condition not met"]
]}
